Test system: IGROV-1
Experiment summary: Growth inhibition of human IGROV1 cells at 10^-5 M incubated for 48 hrs by sulforhodamine B assay
Type: functional
Assay conditions: IGROV-1, 48 h, read-out: GI
Readout label: inhibition of growth at 10 µM

Molecule	Readout label	Recorded measurement
O=C1/C(=C\c2cccc([N+](=O)[O-])c2)Sc2ccc(Cl)cc21	inhibition of growth at 10 µM	19.9%
O=C1Nc2c(sc3ccc(Cl)cc23)C(c2ccccc2O)N1 (stereo not given)	inhibition of growth at 10 µM	19.7%
O=[N+]([O-])c1cccc(C2NC(=S)Nc3c2sc2ccc(Cl)cc32)c1 (stereo not given)	inhibition of growth at 10 µM	27.5%
N=C1Nc2c(sc3ccc(Cl)cc23)C(c2cccc(Br)c2)N1 (stereo not given)	inhibition of growth at 10 µM	13%
O=C1Nc2c(sc3ccc(Cl)cc23)C(c2ccc3ccccc3c2)N1 (stereo not given)	inhibition of growth at 10 µM	17.4%

---

Documented inhibition of growth at 10 µM across a set of molecules
Test system: SF-268
Experiment summary: Growth inhibition of human SF268 cells at 10^-5 M incubated for 48 hrs by sulforhodamine B assay
Format: functional
Assay conditions: SF-268, 48 h, read-out: GI

Molecule	Assay system	Units	inhibition of growth at 10 µM
Cc1cc(C)n(C2=Nc3c(sc4ccc(Cl)cc34)C(c3cccc([N+](=O)[O-])c3)N2)n1 (stereo not drawn)	SF-268	%	1.15
O=[N+]([O-])c1cccc(C2NC(N3CCOCC3)=Nc3c2sc2ccc(Cl)cc32)c1 (stereo not drawn)	SF-268	%	3.84
O=C1/C(=C\c2ccc3ccccc3c2)Sc2ccc(Cl)cc21	SF-268	%	3.36
O=[N+]([O-])c1cccc(C2c3sc4ccc(Cl)cc4c3N=C3NN=NN32)c1 (stereo not drawn)	SF-268	%	-8.1
O=C1/C(=C\c2cccc(Br)c2)Sc2ccc(Cl)cc21	SF-268	%	2.33
O=C1CC(=O)N(C2=Nc3c(sc4ccc(Cl)cc34)C(c3cccc([N+](=O)[O-])c3)N2)N1 (stereo not drawn)	SF-268	%	-5.71
O=C1SC2=Nc3c(sc4ccc(Cl)cc34)C(c3ccc4ccccc4c3)N2C1=O (stereo not drawn)	SF-268	%	12.7
O=[N+]([O-])c1cccc(C2NC(=S)Nc3c2sc2ccc(Cl)cc32)c1 (stereo not drawn)	SF-268	%	4.17
O=[N+]([O-])c1cccc(C2c3sc4ccc(Cl)cc4c3N=C3NN=C(c4cccc(F)c4)N32)c1 (stereo not drawn)	SF-268	%	2.25
S=C1Nc2c(sc3ccc(Cl)cc23)C(c2cccc(Br)c2)N1 (stereo not drawn)	SF-268	%	1.41
O=[N+]([O-])c1cccc(C2c3sc4ccc(Cl)cc4c3N=C3NN=CN32)c1 (stereo not drawn)	SF-268	%	4.21
O=C1CSC2=Nc3c(sc4ccc(Cl)cc34)C(c3ccc4ccccc4c3)N12 (stereo not drawn)	SF-268	%	10.3
N#Cc1cnn(C2=Nc3c(sc4ccc(Cl)cc34)C(c3cccc([N+](=O)[O-])c3)N2)c1N (stereo not drawn)	SF-268	%	5.36
O=C1/C(=C\c2cccc([N+](=O)[O-])c2)Sc2ccc(Cl)cc21	SF-268	%	7.22
O=C1Nc2c(sc3ccc(Cl)cc23)C(c2cccc(Br)c2)N1 (stereo not drawn)	SF-268	%	0.19
N=C1Nc2c(sc3ccc(Cl)cc23)C(c2cccc([N+](=O)[O-])c2)N1 (stereo not drawn)	SF-268	%	-1.81
NNC1=Nc2c(sc3ccc(Cl)cc23)C(c2cccc([N+](=O)[O-])c2)N1 (stereo not drawn)	SF-268	%	1.93
O=C1Nc2c(sc3ccc(Cl)cc23)C(c2ccc3ccccc3c2)N1 (stereo not drawn)	SF-268	%	6.94

FYI, the data here is from ChEMBL document CHEMBL4414672.
